Cited source: BindingDB's records for doi:10.1021/jm030921v

molecular target: Type-2 angiotensin II receptor (Sus scrofa); assay: Binding affinity for Angiotensin II receptor type 2 using [125I]- Ang II in pig uterus myometrium
Numbered stars: 1 amine (or outer) side, 2 acyl side, 3 side chain; on linkers, the order of the positions; unused ones are H or OH. Bridge positions count the residues as written; N and C are the ends. Peptide text beside a SMILES is read from it. CH2 = C([*:1])[*:2]
Measured Ki by item

Known Ki results, listed for orientation:
CC(C)[C@H](NC(=O)[C@H](C)NC(=O)[C@@H](N)CC(=O)O)C(=O)Nc1ccc2c(c1)CN(CC(=O)N[C@@H](Cc1cnc[nH]1)C(=O)N1CCC[C@H]1C(=O)N[C@@H](Cc1ccccc1)C(=O)O)C(=O)[C@H](Cc1ccc(O)cc1)N2 [Angiotensin II analogue] | > 10 µM
N=C(N)NCCC[C@H](NC(=O)[C@@H](N)CC(=O)O)C(=O)Nc1ccc2c(c1)CN(CC(=O)N[C@@H](Cc1cnc[nH]1)C(=O)N1CCC[C@H]1C(=O)N[C@@H](Cc1ccccc1)C(=O)O)C(=O)[C@H](Cc1ccc(O)cc1)N2 [Angiotensin II analogue] | > 10 µM
N=C(N)NCCC[C@H](NC(=O)[C@@H](N)CC(=O)O)C(=O)N[C@H]1CSCSC[C@@H](C(=O)N[C@@H](Cc2cnc[nH]2)C(=O)N2CCC[C@H]2C(=O)N[C@@H](Cc2ccccc2)C(=O)O)NC(=O)[C@H](Cc2ccc(O)cc2)NC1=O [Angiotensin II analogue] (H-DRCYCHPF-OH; linker 3-5 via CH2) | 0.00062 µM

Next up:
Incoming: # get_value(readout='Ki', item= CC(C)[C@H](NC(=O)[C@H](CCCNC(=N)N)NC(=O)[C@@H](N)CC(=O)O)C(=O)N[C@@H](Cc1ccc(O)cc1)C(=O)Nc1ccc2c(c1)CN(CC(=O)N[C@@H](Cc1ccccc1)C(=O)O)C(=O)[C@H](Cc1cnc[nH]1)N2 [Angiotensin II analogue] )
Outgoing: > 10 µM
